Sourced from PubChem BioAssay AID652016

target: Luciferin 4-monooxygenase (Photinus pyralis); test: qHTS Assay for Inhibitors of Firefly Luciferase from the GSK Published Protein Kinase Inhibitor Set; conditions: purified firefly luciferase, luminescence inhibition; series mostly up to 57.5 µM
Results filed as inconclusive are left out. The source made the active and inactive calls. Calls come from the whole dose curve; as a rule, active = well fitted inhibition curve with a large enough effect; inconclusive = small, poorly fitted or top-dose-only effect; inactive = flat fitted curve, though single readings scatter.
Select the matching outcome among 1 (yes) (active), 0 (no) (inactive)

Consider the following illustrative entries.
CCS(=O)(=O)c1ccc(OC)c(Nc2ncc(-c3cccc(F)c3)o2)c1 : 0 (no)
Fc1ccc(-c2nc3n(c2-c2ccncc2)CCS3)cc1 : 0 (no)
COc1ccc(-c2cc3c(N)ncnc3o2)cc1 : 1 (yes)

What outcome does the record of this test show for COc1cc2c(cc1Nc1nc(Nc3ccsc3C(N)=O)c3cc[nH]c3n1)N(C(=O)CN(C)C)CCC2(C)C ?
0 (no)

What outcome does the record of this test show for COc1cc(N2CCN(C(C)C)CC2)ccc1Nc1nc(Nc2cccc(F)c2C(=O)O)c2cc[nH]c2n1 ?
0 (no)

What outcome does the record of this test show for Nc1nccc(-c2c(-c3ccc(F)cc3)nn3cc(C(F)(F)F)ccc23)n1 ?
0 (no)

---

target: Luciferin 4-monooxygenase (Photinus pyralis); test: qHTS Assay for Inhibitors of Firefly Luciferase from the GSK Published Protein Kinase Inhibitor Set; conditions: purified firefly luciferase, luminescence inhibition; series mostly up to 57.5 µM
Results filed as inconclusive are left out. Active and inactive are the calls of the source. Calls come from the whole dose curve; as a rule, active = well fitted inhibition curve with a large enough effect; inconclusive = small, poorly fitted or top-dose-only effect; inactive = flat fitted curve, though single readings scatter.
Select the matching outcome among active, inactive

Fc1cccc(COc2ccc(Nc3ncnc4cc(-c5ccc[nH]5)sc34)cc2Cl)c1 : inactive

What outcome does the record of this test show for N#Cc1c(NC(=O)c2ccccc2F)sc2c1CCCC2 ?
active

What outcome does the record of this test show for CCn1c(-c2nonc2N)nc2c(C#CC(C)(C)O)nc(OC(CN)c3ccccc3)cc21 (stereo unspecified) ?
inactive

What outcome does the record of this test show for CC(C)c1ccc(-c2cc(-c3cn[nH]c3-c3ccccn3)ccn2)cc1 ?
inactive

What outcome does the record of this test show for COc1ccc2cc(-c3c(-c4ccncc4)nc(-c4ccc(S(C)=O)cc4C)n3C)ccc2c1 (stereo unspecified) ?
inactive

What outcome does the record of this test show for O=C1Nc2ccc(C(=O)c3ccco3)cc2/C1=C/c1cc(Cl)c(O)c(Cl)c1 ?
active

What outcome does the record of this test show for O=S(=O)(CCOCc1ccc(-c2ccc3ncnc(Nc4ccc(OCc5cccc(F)c5)c(Cl)c4)c3c2)o1)c1ccccc1 ?
inactive

---

molecular target: Luciferin 4-monooxygenase (Photinus pyralis) (UniProt P08659); test: qHTS Assay for Inhibitors of Firefly Luciferase from the GSK Published Protein Kinase Inhibitor Set; settings: purified firefly luciferase, luminescence inhibition; series mostly up to 57.5 µM
Sequence (P08659 whole entry, looked up): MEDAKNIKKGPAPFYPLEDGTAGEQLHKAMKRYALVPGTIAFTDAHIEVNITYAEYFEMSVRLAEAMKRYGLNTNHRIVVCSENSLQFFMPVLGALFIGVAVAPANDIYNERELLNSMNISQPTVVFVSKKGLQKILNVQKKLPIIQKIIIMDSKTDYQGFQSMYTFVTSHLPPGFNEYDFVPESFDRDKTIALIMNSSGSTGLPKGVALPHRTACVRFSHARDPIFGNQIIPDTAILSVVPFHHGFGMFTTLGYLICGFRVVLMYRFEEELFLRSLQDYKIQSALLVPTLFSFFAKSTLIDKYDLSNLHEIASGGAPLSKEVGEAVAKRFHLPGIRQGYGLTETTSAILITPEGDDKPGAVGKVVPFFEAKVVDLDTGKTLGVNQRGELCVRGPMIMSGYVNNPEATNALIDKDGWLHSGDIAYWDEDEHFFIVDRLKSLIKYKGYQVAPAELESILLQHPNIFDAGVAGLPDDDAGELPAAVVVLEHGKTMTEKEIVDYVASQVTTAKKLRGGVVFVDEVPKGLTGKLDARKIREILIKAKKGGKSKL
Records with an inconclusive call do not appear. Active and inactive are the calls of the source. The call rests on the fitted dose curve; in most records, active means well fitted inhibition curve with a large enough effect; inconclusive means small, poorly fitted or top-dose-only effect; inactive means flat fitted curve, though single readings scatter.
Select the matching outcome among yes = active, no = inactive

CN(C)CCOc1ccc(-c2cc(-c3ccc4c(c3)CCC4=NO)c(-c3ccncc3)o2)cc1 : no
Fc1ccc(-c2ncn(C3CCNCC3)c2-c2ccnc(Oc3ccc(Oc4ccccc4)cc3)n2)cc1 : no

What outcome does the record of this test show for CN(c1ccc(NC(=O)Nc2c(Cl)cccc2Cl)cc1)c1ccnc(Nc2cccc(CS(C)(=O)=O)c2)n1 ?
yes

---

target: Luciferin 4-monooxygenase (Photinus pyralis) (UniProt P08659); test: qHTS Assay for Inhibitors of Firefly Luciferase from the GSK Published Protein Kinase Inhibitor Set; conditions: purified firefly luciferase, luminescence inhibition; series mostly up to 57.5 µM
Results filed as inconclusive are left out. The source made the active and inactive calls. The call rests on the fitted dose curve; in most records, active means well fitted inhibition curve with a large enough effect; inconclusive means small, poorly fitted or top-dose-only effect; inactive means flat fitted curve, though single readings scatter.
Select the matching outcome among active, inactive

Cc1cc(O)cc(C)c1C=Cc1cncc(C(=O)OC(C)(C)C)c1 : inactive
COc1cc2ncnc(Nc3ccc4c(cnn4Cc4ccccc4)c3)c2cc1OC : inactive
O=C1NC(=O)C(c2cccc([N+](=O)[O-])c2)=C1Nc1cc(Cl)c(O)c(Cl)c1 : inactive
CCn1c(-c2nonc2N)nc2c(C#CC(C)(C)O)ncc(OCC3CCNCC3)c21 : inactive
CCc1nccc2c1nc(-c1nonc1N)n2CC : inactive

What outcome does the record of this test show for CCS(=O)(=O)c1ccc(OC)c(Nc2ncc(-c3cccc(C(C)=O)c3)o2)c1 ?
inactive

What outcome does the record of this test show for COc1cccc(Nc2nccc(-c3cnn4ncccc34)n2)c1 ?
inactive

What outcome does the record of this test show for COc1ccc(COc2ccc(Cc3cnc(N)nc3N)cc2OC)cc1 ?
inactive

What outcome does the record of this test show for CNC(=O)c1cncc(C=Cc2c(Cl)cccc2Cl)c1 ?
active

What outcome does the record of this test show for O=C1NC(=O)C(c2cccc(Cl)c2)=C1Nc1ccc(O)c(Cl)c1 ?
inactive
